tested on: Pseudomonas aeruginosa; test: Antimicrobial activity against Pseudomonas aeruginosa PAO1 under iron-sufficient condition by CLSI protocol based broth microdilution method; type: functional
Catalogue of MIC90 readings, one per entry.
Supply the numeric figure in µM, leaving out any unit text.

{"columns": ["Compound smiles", "Target or test system", "Unit text", "MIC90"],
 "data": [
  ["CC1(C)S[C@@H]2[C@H](NC(=O)[C@H](NC(=O)CCC(=O)NC(CCCNC(=O)c3cccc(O)c3O)(CCCNC(=O)c3cccc(O)c3O)CCCNC(=O)c3cccc(O)c3O)c3ccc(O)cc3)C(=O)N2[C@H]1C(=O)O", "Pseudomonas aeruginosa", "µM", 50]
]}

Continue with the molecule presented below.
Report MIC90 from Pseudomonas aeruginosa testing of CC1(C)S[C@@H]2[C@H](NC(=O)[C@H](NC(=O)CCC(=O)NC(CCCNC(=O)c3cccc(O)c3O)(CCCNC(=O)c3cccc(O)c3O)CCCNC(=O)c3cccc(O)c3O)c3ccccc3)C(=O)N2[C@H]1C(=O)O
50

* * *

Catalogue of MIC90 readings, one per entry.
tested on: Pseudomonas aeruginosa; assay: Antimicrobial activity against Pseudomonas aeruginosa KW799 under iron-sufficient condition by CLSI protocol based broth microdilution method; format: functional

{"columns": ["Compound smiles", "MIC90"],
 "data": [
  ["CC1(C)S[C@@H]2[C@H](NC(=O)[C@H](N)c3ccc(O)cc3)C(=O)N2[C@H]1C(=O)O", "0.46 to 200 µM"],
  ["CC1(C)S[C@@H]2[C@H](NC(=O)[C@H](N)c3ccccc3)C(=O)N2[C@H]1C(=O)O", "0.52 to 200 µM"],
  ["CC1(C)S[C@@H]2[C@H](NC(=O)[C@H](NC(=O)CCC(=O)NC(CCCNC(=O)c3cccc(O)c3O)(CCCNC(=O)c3cccc(O)c3O)CCCNC(=O)c3cccc(O)c3O)c3ccc(O)cc3)C(=O)N2[C@H]1C(=O)O", "12.5 to 25 µM"]
]}

Continue with the molecule presented below.
Provide MIC90 value for the following molecule: CC1(C)S[C@@H]2[C@H](NC(=O)[C@H](NC(=O)CCC(=O)NC(CCCNC(=O)c3cccc(O)c3O)(CCCNC(=O)c3cccc(O)c3O)CCCNC(=O)c3cccc(O)c3O)c3ccccc3)C(=O)N2[C@H]1C(=O)O
12.5 to 33 µM

* * *

system: Pseudomonas aeruginosa; assay: Antimicrobial activity against Pseudomonas aeruginosa KW799 under iron-deficient condition by CLSI protocol based broth microdilution method; format: functional
Catalogue of MIC90 readings, one per entry.

Provide MIC90 value for the following compound: CC1(C)S[C@@H]2[C@H](NC(=O)[C@H](NC(=O)CCC(=O)NC(CCCNC(=O)c3cccc(O)c3O)(CCCNC(=O)c3cccc(O)c3O)CCCNC(=O)c3cccc(O)c3O)c3ccc(O)cc3)C(=O)N2[C@H]1C(=O)O
0.05 to 0.083 µM

Provide MIC90 value for the following compound: CC1(C)S[C@@H]2[C@H](NC(=O)[C@H](N)c3ccc(O)cc3)C(=O)N2[C@H]1C(=O)O [AMOXICILLIN]
0.39 to 200 µM

Provide MIC90 value for the following compound: CC1(C)S[C@@H]2[C@H](NC(=O)[C@H](N)c3ccccc3)C(=O)N2[C@H]1C(=O)O [AMPICILLIN]
0.78 to 200 µM

Provide MIC90 value for the following compound: CC1(C)S[C@@H]2[C@H](NC(=O)[C@H](NC(=O)CCC(=O)NC(CCCNC(=O)c3cccc(O)c3O)(CCCNC(=O)c3cccc(O)c3O)CCCNC(=O)c3cccc(O)c3O)c3ccccc3)C(=O)N2[C@H]1C(=O)O
0.05 to 0.067 µM
